assayed_target: T1, human IL-18 binding protein isoform a (IL-18BPa) (Homo sapiens, UniProt O95998)
T1 sequence (O95998 31-194): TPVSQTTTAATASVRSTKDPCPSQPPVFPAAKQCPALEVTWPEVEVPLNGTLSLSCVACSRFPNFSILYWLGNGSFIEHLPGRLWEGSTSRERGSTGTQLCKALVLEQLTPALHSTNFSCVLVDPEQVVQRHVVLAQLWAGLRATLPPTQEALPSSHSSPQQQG
experiment_description: IL-18 Binding Protein inhibition cellular assay in NK-92 cells (Example 4 / 17C)
Assay type: cell-based
test_parameters: inhibition by IL-18BP of IFNγ stimulation in NK92 cells
Listed next: entries and their corresponding IC50.
Field: numeric (nM). Do not append units.

molecule	data_value
C156: IL-18 polypeptide: V11I, C38A, N41A, K53A, C76A, C127A (protein) YFGKLESKLSIIRNLNDQVLFIDQGNRPLFEDMTDSDARDAAPRTIFIISMYADSQPRGMAVTISVKCEKISTLSAENKIISFKEMNPPDNIKDTKSDIIFFQRSVPGHDNKMQFESSSYEGYFLAAEKERDLFKLILKKEDELGDRSIMFTVQNED	0.681
C164: IL-18 polypeptide: V11I, C38A, S55H, C76A, C127A (protein) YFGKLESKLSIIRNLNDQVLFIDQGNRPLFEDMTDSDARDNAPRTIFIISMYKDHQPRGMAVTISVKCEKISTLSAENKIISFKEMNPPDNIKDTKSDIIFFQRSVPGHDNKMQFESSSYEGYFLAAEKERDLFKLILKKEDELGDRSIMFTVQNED	0.456
SEQ ID NO: 68: IL-18 polypeptide: V11I, C38A, M51G, K53A, C76A, C127A (protein) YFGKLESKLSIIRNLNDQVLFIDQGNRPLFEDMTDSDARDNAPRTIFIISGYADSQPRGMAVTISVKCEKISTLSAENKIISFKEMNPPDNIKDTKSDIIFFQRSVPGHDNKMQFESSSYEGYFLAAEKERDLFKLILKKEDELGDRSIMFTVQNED	733
C158: IL-18 polypeptide: V11I, C38A, K53A, C76A, G108A, C127A (protein) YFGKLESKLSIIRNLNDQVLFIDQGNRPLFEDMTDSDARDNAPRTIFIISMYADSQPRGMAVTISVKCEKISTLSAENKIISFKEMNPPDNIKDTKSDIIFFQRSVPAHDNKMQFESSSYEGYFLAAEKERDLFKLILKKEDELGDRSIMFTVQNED	3.98

Next item in the queue.
Can you share its IC50? I mean this molecule: C148: IL-18 polypeptide: F2A, V11I, C38A, K53A, C76A, C127A (protein) YAGKLESKLSIIRNLNDQVLFIDQGNRPLFEDMTDSDARDNAPRTIFIISMYADSQPRGMAVTISVKCEKISTLSAENKIISFKEMNPPDNIKDTKSDIIFFQRSVPGHDNKMQFESSSYEGYFLAAEKERDLFKLILKKEDELGDRSIMFTVQNED
5.05

Where do the numbers come from? From patent US12383631B2.
